Source: paper PMC8279492

- Assay overview: Compounds' toxicity, CellTiter 96 AQueous One Solution Cell Proliferation Assay
- Type: cell-based
- Condition description: human, HeLa-CD4-LTR-β-gal cells, CC50 (cytotoxic concentration 50%), 24 h
- Method: HIV-1 replication was monitored using HeLa-CD4-LTR-β-gal reporter cells as previously described.[69] Briefly, β-galactosidase activity was monitored 24 h post infection using a replication-competent HIV produced in-house (H9-laï coculture) and a serial dilution of molecules or an equivalent volume of DMSO. In parallel, compounds’ toxicity was determined at 24 h in the same cell line using CellTiter 96 AQueous One Solution Cell Proliferation Assay (Promega, France).
Measurement label: CC50 at 24 h

* CCOC(=O)c1cn(Cc2ccc(F)cc2)c2ccc(OCc3cccc4ccccc34)cc2c1=O [5o] | > 100 µM
* CC(=O)c1ccc2c(c1)c(=O)c(C(=O)O)cn2Cc1ccc(F)cc1 [4d] | > 200 µM
* O=C(O)c1cn(Cc2ccc(F)cc2)c2ccc(OCc3ccc(-c4ccccc4)cc3)cc2c1=O [4s] | > 100 µM
* O=C(O)c1cn(Cc2ccc(F)cc2)c2ccc(OCc3ccccc3)cc2c1=O [4l] | > 100 µM
* O=C(O)c1cn(Cc2ccc(F)cc2)c2ccc(OCCCCc3ccccc3)cc2c1=O [4r] | > 200 µM
